Tested on: PC-3 prostate
Test: NCI tumour cell line growth inhibition, 48 h
readout-name: TGI

These solved cases illustrate the format of a correct answer.
compound	val
Cc1cc(C)c(S(=O)(=O)N(CCCCCN)OCCCN)c(C)c1	28.8 µM
CCNc1ccc2c(c1)C(=O)N(OS(C)(=O)=O)C2=O	> 100 µM
Fc1ccc(-c2ncn(C3CCNCC3)c2-c2ccnc(Oc3ccc(Cl)cc3)n2)cc1	> 15.9 µM
CCN(CC)c1ccc(/C=N/N=C(N)N)cc1	92.9 µM
CCN(CC)CC[n+]1ccc2c(C)c3[nH]c4ccccc4c3c(C)c2c1	3.18 µM
S=C(Nc1ccc(-c2nc3ccccc3s2)cc1)Nc1ccc(-c2nc3ccccc3s2)cc1	> 100 µM
COC1(C)CCC(OS(C)(=O)=O)CO1 (stereo unspecified)	> 100 µM
COc1ccc(C(=O)Cn2c(C(=O)c3ccc(Cl)cc3)nc(-c3ccccc3)c2-c2ccccc2)cc1	> 100 µM
Clc1cc(Cl)nc(Nc2ccc3c(c2)CCC3)n1	> 100 µM
CN(C)CCN=c1nc2c(c(N)n1-c1ccccc1)c(=S)n(-c1ccccc1)c(=S)n2-c1ccccc1	27.7 µM

API: the following record is the query input.
Fill blank: measured TGI of the compound CC12CC(c3ccccc3O1)C(C(=O)Nc1nccs1)C(=O)N2 (stereo unspecified) is ____.
> 100 µM
